Measurement record for Cathepsin L (Homo sapiens (Human), UniProt P07711); quantity recorded: pIC50.
Scale: pIC50 equals -log10([C]), with [C] in mol/L.

Worked set:
compound: N#CC1(NC(=O)[C@@H]2Cc3ccc(c(I)c3)OCCCCOc3ccccc3C(=O)N2)CC1 [Example 30]
assay-result: 6.74

compound: N#CC1(NC(=O)[C@@H]2Cc3ccc(c(Cl)c3)OCCCCOc3ccc(Br)cc3C(=O)N2)CC1 [Example 9]
assay-result: 8.00

# evaluate next
## Input Give reported pIC50 value for N#CC1(NC(=O)[C@@H]2Cc3ccc(c(Cl)c3)OC/C=C/COc3cc4c(cc3C(=O)N2)CCCC4)CC1 [Example 27]
## Output 7.80

###

Overview of reported log10 IC50 across a group of compounds:
measurement-target: UniProt:P07711
log10 IC50, µM

compound: N#CC1(NC(=O)[C@@H]2Cc3ccc(c(Cl)c3)OC/C=C/CCN3C[C@@H](F)CC3C(=O)N2)CC1 (mixture of isomers)
log10 IC50: -0.02

## Input Provide UniProt:P07711 log10 IC50 reading for N#CC1(NC(=O)[C@@H]2Cc3ccc(c(Cl)c3)OCCCCOc3cc(C(F)(F)F)ccc3C(=O)N2)CC1 .
## Output -1.30

###

measurement-target: Cathepsin L (Homo sapiens (Human), UniProt P07711)
Sequence (P07711 114-333): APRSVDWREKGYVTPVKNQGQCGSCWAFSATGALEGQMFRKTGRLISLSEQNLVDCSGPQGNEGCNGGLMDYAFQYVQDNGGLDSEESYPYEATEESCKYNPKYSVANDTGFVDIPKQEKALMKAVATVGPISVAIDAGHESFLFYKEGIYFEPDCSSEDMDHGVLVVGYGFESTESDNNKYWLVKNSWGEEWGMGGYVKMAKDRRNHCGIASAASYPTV
pIC50: −log10 of the molar value.
Tick y if pIC50 is 8 or greater. Tick n if pIC50 is less than 8.

Example entries and their recorded answers appear below.
smiles-data: N#CC1(NC(=O)[C@@H]2Cc3ccc(c(Cl)c3)OC/C=C/COc3ccc(C4CNC4)cc3C(=O)N2)CC1
label-class: y

smiles-data: N#CC1(NC(=O)[C@@H]2Cc3ccc(c(Cl)c3)OC/C=C/COc3ccc(F)c(F)c3C(=O)N2)CC1
label-class: y

smiles-data: COc1ccc2c(c1)CC/C=C/COc1ccc(cc1Cl)C[C@@H](C(=O)NC1(C#N)CC1)NC2=O
label-class: n

## Input Please check the record N#CC1(NC(=O)[C@@H]2Cc3ccc(c(Cl)c3)OCCCCOc3ccc(F)cc3C(=O)N2)CC1 and state if its pIC50 is at or above 8.
## Output n

## Input Quick check, pIC50 >= 8? N#CC1(NC(=O)[C@@H]2Cc3ccc(c(Cl)c3)OC/C=C/COc3cc(C(F)(F)F)ccc3C(=O)N2)CC1
## Output n

## Input Hi, just wondering whether N#CC1(NC(=O)[C@@H]2Cc3ccc(c(Cl)c3)OC/C=C/COc3cccc(c3)C(=O)N2)CC1 shows pIC50 of 8 or higher.
## Output n

###

measurement-target: Cathepsin L (Homo sapiens (Human), UniProt P07711)
pIC50: −log10 of the molar value.
Assign class by pIC50: not lower than 8 means criterion met; lower than 8 means criterion not met.

compound: CSc1ccc2c(c1)C(=O)N[C@H](C(=O)NC1(C#N)CC1)Cc1ccc(c(Cl)c1)OCCCCO2
label-class: criterion met
//
compound: N#Cc1ccc2c(c1)C(=O)N[C@H](C(=O)NC1(C#N)CC1)Cc1ccc(c(Cl)c1)OCCCCO2
label-class: criterion not met
//
compound: CSc1ccc2c(c1)C(=O)N[C@H](C(=O)NC1(C#N)CC1)Cc1ccc(c(Cl)c1)OC/C=C/CO2
label-class: criterion met
//
compound: N#CC1(NC(=O)[C@@H]2Cc3ccc(c(Cl)c3)OC/C=C/COc3ccc(Br)cc3C(=O)N2)CC1
label-class: criterion not met

## Input Record N#CC1(NC(=O)[C@@H]2Cc3ccc(c(I)c3)OC/C=C/COc3ccccc3C(=O)N2)CC1 [Example 25] ; criterion: pIC50 no lower than 8. Met?
## Output criterion not met

###

measurement-target: Cathepsin L (Homo sapiens (Human), UniProt P07711)
quantity-kind: pIC50
Bear in mind: pIC50 is minus log10 of a mol/L concentration; give just that figure.

// solved cases for pIC50 follow
compound: Cc1ccc2c(n1)SC/C=C/COc1ccc(cc1Cl)C[C@@H](C(=O)NC1(C#N)CC1)NC2=O [Example 19]
assay-result: 7.59
//
compound: N#CC1(NC(=O)[C@@H]2Cc3ccc(cc3)OC/C=C/COc3cccc(c3)C(=O)N2)CC1 [Example 2]
assay-result: 6.64

## Input Consider the compound N#CC1(NC(=O)[C@@H]2Cc3ccc(c(Cl)c3)OC/C=C/COc3cc(Cl)ccc3C(=O)N2)CC1 [Example 33] tested on Cathepsin L (Homo sapiens (Human), UniProt P07711); state its pIC50.
## Output 7.14

###

IC50 values recorded for Cathepsin L (Homo sapiens (Human), UniProt P07711)
Answer in nM, number only, no unit symbol.

molecule: N#CC1(NC(=O)[C@@H]2Cc3ccc(c(Cl)c3)OC/C=C/COc3ccc(F)cc3C(=O)N2)CC1 [Example 32]
unit-info: nM
IC50: 16

molecule: N#CC1(NC(=O)[C@@H]2Cc3ccc(c(Cl)c3)OC/C=C/CNc3ccccc3C(=O)N2)CC1 [Example 21]
unit-info: nM
IC50: 54

molecule: N#CC1(NC(=O)[C@@H]2Cc3ccc(c(Cl)c3)OCCCCOc3ccc(Cl)cc3C(=O)N2)CC1 [Example 11]
unit-info: nM
IC50: 11.6

molecule: N#CC1(NC(=O)[C@@H]2Cc3ccc(c(Cl)c3)OCCCCOc3cc4c(cc3C(=O)N2)CCCC4)CC1 [Example 29]
unit-info: nM
IC50: 13

molecule: N#CC1(NC(=O)[C@@H]2Cc3ccc(c(Cl)c3)OC/C=C/CCN3CCCC3C(=O)N2)CC1 (mixture of isomers) [Example 12]
unit-info: nM
IC50: 878

Next:
## Input Please indicate recorded IC50 of N#CC1(NC(=O)[C@@H]2Cc3ccc(c(Cl)c3)OCCCCOc3cc(Cl)ccc3C(=O)N2)CC1 [Example 36] measured with Cathepsin L (Homo sapiens (Human), UniProt P07711).
## Output 50

###

// values below are log10 IC50; system is Cathepsin L (Homo sapiens (Human))
Hi team, quick reminder: these entries are log10 of IC50 (µM).

molecule: N#CC1(NC(=O)[C@@H]2Cc3ccc(c(Cl)c3)OC/C=C/CNc3ccc(Br)cc3C(=O)N2)CC1 [Example 38]
measurement-target: Cathepsin L (Homo sapiens (Human))
log10 IC50: -2.00

## Input Determine its reported log10 IC50: N#CC1(NC(=O)[C@@H]2Cc3ccc(c(I)c3)OCCCCOc3ccc(Cl)cc3C(=O)N2)CC1 [Example 31]
## Output -1.92

## Input Fill in log10 IC50 for record CC(C)(C)OC(=O)N1CC(c2ccc3c(c2)C(=O)N[C@H](C(=O)NC2(C#N)CC2)Cc2ccc(c(Cl)c2)OC/C=C/CO3)C1 [Example 39]
## Output -1.58

## Input Answer with the recorded log10 IC50 for the molecule listed here: N#CC1(NC(=O)[C@@H]2Cc3ccc(c(Cl)c3)OC/C=C/CCN3CC(F)(F)CC3C(=O)N2)CC1 (mixture of isomers) [Example 14]
## Output 0.78

## Input For the molecule N#CC1(NC(=O)[C@@H]2Cc3ccc(c(Cl)c3)OC/C=C/COc3ccccc3C(=O)N2)CC1 [Example 4] , report log10 IC50.
## Output -1.86
